B1: TPR 5TU (parent)
chain: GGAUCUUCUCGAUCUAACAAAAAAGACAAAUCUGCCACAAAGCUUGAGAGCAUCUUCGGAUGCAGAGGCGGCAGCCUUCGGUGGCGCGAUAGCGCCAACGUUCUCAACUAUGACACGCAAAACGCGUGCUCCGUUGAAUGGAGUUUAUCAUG

Variants of: B1
assayComment: polymerase ribozyme fitness, log enrichment relative to wild type (log ratio); higher = more active; in vitro selection for triplet polymerase activity
Fewer inactive variants are shown than the library holds.
Record 1.0 whenever polymerase ribozyme fitness (log ratio) is at -2 or higher; record 0.0 when lower.

Worked cases, answers included:
Record A107U U135C ; criterion: polymerase ribozyme fitness (log ratio) no lower than -2. Met?
0.0

Follow-up item: G59C G92U C105A C125A C149U
0.0

Also U33G G50C U56A U134G U145C , if possible.
0.0

For G34A U55A then?
0.0

Further, for C8G A41U U55G U56A G65A G70C U78A G81A C93A A122U ?
0.0

Next:
Decide: polymerase ribozyme fitness (log ratio) of U44G G70C G83A C116A G152A >= -2?
0.0

Please give the result for C57A G141A G152U too.
0.0
